System: Vero cells
Details: African green monkey
Sorting guide: entries reporting CC50 beneath 10 µM go in the Y pile, the rest go in the N pile.

[
  {
    "molecule": "COc1cc(NC(C(=O)N2CCc3cc(OC)c(C(F)(F)F)cc32)c2ccc(Cl)cc2F)cc(OCCCC(=O)O)c1 (single isomer, unassigned) [Compound 11B]",
    "discrete-label": "N"
  },
  {
    "molecule": "COc1cc(NC(C(=O)N2CCc3cc(OC)c(C(F)(F)F)cc32)c2ccc(Cl)cc2)cc(OCCCC(=O)O)c1 (single isomer, unassigned)",
    "discrete-label": "N"
  },
  {
    "molecule": "COc1cc(NC(C(=O)N2CCc3cc(OC)c(OC(F)(F)F)cc32)c2ccc(Cl)cc2)cc(OCCCC(=O)O)c1 (single isomer, unassigned) [Compound 12B]",
    "discrete-label": "N"
  },
  {
    "molecule": "COc1cc(NC(C(=O)N2CCc3ccc(OC(F)(F)F)cc32)c2ccc(Cl)cc2F)cc(OCCCC(=O)O)c1 (single isomer, unassigned) [Compound 10B]",
    "discrete-label": "Y"
  },
  {
    "molecule": "COc1cc(NC(C(=O)N2CCc3ccc(OC(F)(F)F)cc32)c2ccc(Cl)cc2OC)cc(OCCCC(=O)O)c1 (single isomer, unassigned)",
    "discrete-label": "N"
  },
  {
    "molecule": "COc1cc(NC(C(=O)N2CCc3ccc(C(F)(F)F)cc32)c2ccc(F)cc2)cc(OCCCC(=O)O)c1 (single isomer, unassigned)",
    "discrete-label": "N"
  }
]
